These records show IC50 for tankyrase 1 (TNKS1) (Homo sapiens).
quantity name: IC50

1) COc1ccc(-c2n[nH]cc2C2NC(=O)c3ccccc3N2)cc1 (centres unmarked)	5 to 20 nM
2) COc1ccc(-c2[nH]ncc2C2NC(=O)c3cccc(C)c3N2)cc1 (centres unmarked)	5 to 20 nM
3) Cc1cccc2c1NC(c1n[nH]nc1-c1ccc(OCC(F)F)cc1)NC2=O (centres unmarked)	5 to 20 nM
4) CCOc1ccc(-c2n[nH]cc2C2NC(=O)c3cccc(C)c3N2)cc1 (centres unmarked)	5 to 20 nM
5) CN1c2ccccc2C(=O)NC1c1c[nH]nc1-c1cccc(Br)c1 (centres unmarked)	20 to 50 nM

* * *

tested on: human colorectal cancer cell line COLO-320DM; assay: Cell proliferation inhibitory activity test (Celltiter-Glo); format: cell-based; details: COLO-320DM cells, 96 hours
Quick reference: GI50 of the listed items.
quantity name: GI50

1. O=C1NC(c2n[nH]nc2-c2ccc(OCC(F)F)cc2)N2CCc3cccc1c32 (stereo not shown) [Example 84]	≥ 10 µM
2. CN1c2ccccc2C(=O)NC1c1c[nH]nc1-c1ccc(-c2ccc(N3CCNCC3)cc2)cc1 (stereo not shown) [Example 41]	1 to 10 µM
3. COc1ccc(-c2[nH]ncc2C2NC(=O)c3cccc(C)c3N2)cc1 (stereo not shown) [Example 50]	≥ 10 µM
4. CCOc1ccc(-c2n[nH]nc2C2NC(=O)c3cccc4c3N2CC4)cc1 (stereo not shown) [Example 75]	1 to 10 µM
5. COc1ccc(-c2n[nH]cc2C2NC(=O)c3cccc(C)c3N2)cc1F (stereo not shown) [Example 56]	≥ 10 µM
6. CN1c2ccccc2C(=O)NC1c1n[nH]nc1-c1ccc(OCC(F)(F)F)cc1 (stereo not shown) [Example 64]	≥ 10 µM
7. COc1ccc(-c2n[nH]nc2C2NC(=O)c3cccc(C)c3N2)cc1 (racemic) [Example 65]	< 1 µM
8. COc1ccc(-c2n[nH]nc2C2NC(=O)c3cccc(C(F)(F)F)c3N2)cc1 (stereo not shown) [Example 71]	1 to 10 µM
9. CCOc1ccc(-c2n[nH]nc2C2NC(=O)c3ccccc3N2C)cc1 (stereo not shown) [Example 63]	1 to 10 µM
10. CN1c2ccccc2C(=O)NC1c1c[nH]nc1-c1ccc(-c2ccccc2)cc1 (stereo not shown) [Example 17]	≥ 10 µM
11. COc1ccc(-c2n[nH]nc2C2NC(=O)c3cccc4c3N2CC4)cc1 (racemic) [Example 69]	1 to 10 µM
12. CCOC(=O)Cc1ccc(-c2cccc(-c3n[nH]cc3C3NC(=O)c4ccccc4N3C)c2)cc1 (stereo not shown) [Example 37]	≥ 10 µM
13. CN1CCN(Cc2ccc(-c3cccc(-c4n[nH]cc4C4NC(=O)c5ccccc5N4C)c3)cc2)CC1 (stereo not shown) [Example 32]	≥ 10 µM
14. COc1ccc(-c2n[nH]cc2C2NC(=O)c3cccc4c3N2CC4)cc1 (stereo not shown) [Example 52]	≥ 10 µM
15. CN1c2ccccc2C(=O)NC1c1c[nH]nc1-c1ccc(-c2ccnc3[nH]ccc23)cc1 (stereo not shown) [Example 39]	≥ 10 µM
16. COc1ccc(-c2n[nH]nc2C2NC(=O)c3cccc4c3N2CCO4)cc1 (stereo not shown) [Example 68]	1 to 10 µM
17. CCOC(=O)COc1ccc(-c2n[nH]nc2C2NC(=O)c3cccc(C)c3N2)cc1 (stereo not shown) [Example 79]	≥ 10 µM
18. CCN1c2ccccc2C(=O)NC1c1c[nH]nc1-c1ccc(C(=O)OC)cc1 (stereo not shown) [Example 13]	≥ 10 µM
19. COc1ccc(-c2n[nH]cc2C2NC(=O)c3ccccc3N2C)cc1 (stereo not shown) [Example 83]	1 to 10 µM
20. CN1CCN(c2ccc(-c3ccc(-c4n[nH]cc4C4NC(=O)c5ccccc5N4C)cc3)cc2)CC1 (stereo not shown) [Example 6]	1 to 10 µM
21. CN1c2ccccc2C(=O)NC1c1c[nH]nc1-c1ccc(OCc2ccccc2)cc1 (stereo not shown) [Example 11]	≥ 10 µM
22. CCOc1ccc(-c2n[nH]nc2C2NC(=O)c3cccc(CC)c3N2)cc1 (stereo not shown) [Example 80]	< 1 µM
23. CN1CCN(c2ccc(-c3cccc(-c4n[nH]cc4C4NC(=O)c5ccccc5N4C)c3)cc2)CC1 (stereo not shown) [Example 23]	1 to 10 µM
24. CN1c2ccccc2C(=O)NC1c1c[nH]nc1-c1ccc([N+](=O)[O-])cc1 (stereo not shown) [Example 16]	≥ 10 µM
25. COc1ccc(-c2c[nH]nc2C2NC(=O)c3ccccc3N2)cc1 (stereo not shown) [Example 85]	1 to 10 µM
26. CN1c2ccccc2C(=O)NC1c1n[nH]nc1-c1cccc(-c2ccc(N3CCOCC3)cc2)c1 (stereo not shown) [Example 62]	≥ 10 µM
27. CN(C)c1ccc(-c2cccc(-c3n[nH]cc3C3NC(=O)c4ccccc4N3C)c2)cc1 (stereo not shown) [Example 35]	≥ 10 µM
28. COc1ccc(-c2n[nH]nc2C2NC(=O)c3ccccc3N2C)cc1 (stereo not shown) [Example 58]	1 to 10 µM
29. CCOC(=O)Cc1ccc(-c2ccc(-c3[nH]ncc3C3NC(=O)c4ccccc4N3C)cc2)cc1 (stereo not shown) [Example 36]	≥ 10 µM
30. [2H]C([2H])([2H])Oc1ccc(-c2n[nH]nc2C2NC(=O)c3cccc(C)c3N2)cc1 (stereo not shown) [Example 77]	< 1 µM
31. CN(C)c1ccc(-c2ccc(-c3n[nH]cc3C3NC(=O)c4ccccc4N3C)cc2)cc1 (stereo not shown) [Example 34]	1 to 10 µM
